These entries and their values trace back to BindingDB's records for doi:10.1016/j.bmc.2013.03.060.

Molecular target: Androgen receptor (Homo sapiens, UniProt P10275)
Sequence (P10275 whole entry, the tested form may be a part): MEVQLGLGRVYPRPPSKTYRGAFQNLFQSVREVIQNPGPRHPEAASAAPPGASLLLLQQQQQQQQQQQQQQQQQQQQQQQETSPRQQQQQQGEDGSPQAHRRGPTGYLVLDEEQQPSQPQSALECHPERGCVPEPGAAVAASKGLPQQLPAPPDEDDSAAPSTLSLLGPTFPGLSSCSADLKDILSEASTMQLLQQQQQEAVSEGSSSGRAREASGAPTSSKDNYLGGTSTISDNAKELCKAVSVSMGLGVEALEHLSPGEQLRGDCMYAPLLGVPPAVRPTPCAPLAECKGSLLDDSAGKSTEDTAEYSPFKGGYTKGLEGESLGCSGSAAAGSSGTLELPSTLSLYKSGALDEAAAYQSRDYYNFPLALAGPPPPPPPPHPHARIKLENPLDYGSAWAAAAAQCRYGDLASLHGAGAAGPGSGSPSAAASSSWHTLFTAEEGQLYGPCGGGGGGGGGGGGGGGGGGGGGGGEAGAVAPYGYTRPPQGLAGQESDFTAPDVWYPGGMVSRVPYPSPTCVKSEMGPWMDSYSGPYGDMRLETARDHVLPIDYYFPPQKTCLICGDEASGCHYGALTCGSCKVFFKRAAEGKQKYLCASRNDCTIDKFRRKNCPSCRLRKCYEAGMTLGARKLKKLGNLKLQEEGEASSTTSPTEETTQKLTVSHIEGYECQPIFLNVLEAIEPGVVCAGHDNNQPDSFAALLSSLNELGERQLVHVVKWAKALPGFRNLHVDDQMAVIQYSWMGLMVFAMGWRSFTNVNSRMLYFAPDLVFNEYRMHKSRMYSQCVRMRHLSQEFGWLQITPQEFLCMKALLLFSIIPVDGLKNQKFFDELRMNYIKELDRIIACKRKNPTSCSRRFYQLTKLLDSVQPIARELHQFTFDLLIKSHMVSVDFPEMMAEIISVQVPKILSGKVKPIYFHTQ
Test: Antagonist activity at human androgen receptor LBD expressed in human MDA-kb2 cells by luciferase reporter gene assay
List of pIC50 values.
Bear in mind: pIC50 is minus log10 of a mol/L concentration; give just that figure.

O=c1cccc2oc(-c3ccc(O)cc3)cc(O)c1-2	6.07

Prompt: Could you tell me which pIC50 is on file for CN(C)c1ccc(-c2cc(O)c3c(=O)cccc-3o2)cc1 ?
Response: 6.07
